- test_summary: Tissue distribution 90 min after i.v. TFA-IOP (100 umol/kg) or IOP (100 in text, 104 umol/kg in tables) in rats
- Format: in vivo
- assay_setup: rat, in vivo, iv, 90 min, upper GI, read-out: Percentage of dose per gram
Where a name gives a salt, the structure may show the parent alone.
For each of the molecules below, state its tissue uptake at 1.5 h.
Returns: string containing the number followed by the unit.

>>> result("CCC(Cc1c(I)cc(I)c(N)c1I)C(=O)O (centres unmarked) [IOP, iopanoic acid, reference compound]")
"0.73 %ID/g"

Turning now to a further molecule:
Entry CCC(Cc1c(I)cc(I)c(NC(=O)C(F)(F)F)c1I)C(=O)O (centres unmarked) [TFA-IOP, N-trifluoroacetyl-iopanoic acid] : reported tissue uptake at 1.5 h = ?
0.32 %ID/g

====

- test_summary: Biliary excretion and bile flow after i.v. TFA-IOP (100 umol/kg) or IOP (100 in text, 104 umol/kg in tables) in rats
- assay_setup: rat, bile, iv, 100 umol/kg
Where a name gives a salt, the structure may show the parent alone.
measure_name: concentration at 50 min (µM)
Numbers only, in µM.

>>> numeric_readout("CCC(Cc1c(I)cc(I)c(N)c1I)C(=O)O (centres unmarked) [IOP, iopanoic acid, reference compound]")
9670

Please examine the following record next.
Name the reported concentration at 50 min value associated with the compound CCC(Cc1c(I)cc(I)c(NC(=O)C(F)(F)F)c1I)C(=O)O (centres unmarked) [TFA-IOP, N-trifluoroacetyl-iopanoic acid]
7640

====

- test_summary: Biliary excretion and bile flow after i.v. TFA-IOP (100 umol/kg) or IOP (100 in text, 104 umol/kg in tables) in rats
- assay_setup: rat, in vivo, iv, 100 umol/kg, Percentage of dose in bile sample, 0-10 min
- Experimental: Tissues examined included liver, spleen, upper GI, lower GI, kidney, lung and heart. The length of each study was 90 minutes, during which time bile, urine and plasma samples were taken to monitor uptake and excretion. NMR relaxation rates for liver and plasma were also examined to note whether uptake of either compound might possible alter these parameters.
Where a name gives a salt, the structure may show the parent alone.
Please respond with reported dose excreted at 10 min for every item in the list.
Answer with the figure and its unit, nothing else.

>>> result("CCC(Cc1c(I)cc(I)c(N)c1I)C(=O)O (centres unmarked) [IOP, iopanoic acid, reference compound]")
"0.52%"

Dear colleague, I am looking for the recorded dose excreted at 10 min of the following compound: CCC(Cc1c(I)cc(I)c(NC(=O)C(F)(F)F)c1I)C(=O)O (centres unmarked) [TFA-IOP, N-trifluoroacetyl-iopanoic acid]
2.82%

====

Consider the following compounds; for each one, report its tissue uptake at 1.5 h.
- test_summary: Tissue distribution 90 min after i.v. TFA-IOP (100 umol/kg) or IOP (100 in text, 104 umol/kg in tables) in rats
- Format: in vivo
- assay_setup: rat, in vivo, iv, 90 min, lung, read-out: Percentage of dose per gram
Counter-ions that a name gives are not always drawn.
One number for each entry, in %ID/g.

>>> numeric_readout("CCC(Cc1c(I)cc(I)c(NC(=O)C(F)(F)F)c1I)C(=O)O (centres unmarked) [TFA-IOP, N-trifluoroacetyl-iopanoic acid]")
0.64

# ---- query compound ----
Report tissue uptake at 1.5 h for CCC(Cc1c(I)cc(I)c(N)c1I)C(=O)O (centres unmarked) [IOP, iopanoic acid, reference compound] please.
0.77

meta.source: patent US5250283A
